Assay: antimalarial activity against Dd2 strain (AID 2302);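 note: 0% = DMSO untreated growth and 100% = chloroquine plus artemisinin killed control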
Details: P. falciparum Dd2 in RBCs, LDH growth readout, 72 h; at 2 µM; active compounds read high
PARAMETER: growth inhibition (%)
Answers are plain numbers, in %.

Solved cases (2 shown):
compound=COc1ccc2nc3cc(Cl)ccc3c(NCCc3ccccc3)c2c1 value_measured=82
compound=CCCCCCn1c(Sc2ccc(C#N)c([N+](=O)[O-])c2)nnc1-c1ccc(N(C)C)cc1 value_measured=25

Respectfully, I request growth inhibition for each entry included below.
1. COc1ccc(CNC(=O)NC2CCN(c3ccnc(Nc4cc(OC)c(OC)c(OC)c4)n3)C2)cc1 (stereo not drawn)
2. COc1ccc(N2CCN(CCCNC(=O)c3ccc(NC(=O)c4cc(Cl)cc(Cl)c4)cc3)CC2)c(OC)c1
3. O=C1OC2(CCN(C(=O)c3ccc(-n4cnnn4)cc3)CC2)CN1Cc1ccc(Cl)c(Cl)c1
4. Cc1ccc(NC(C)C(=O)Nc2ccc(C#N)cc2)cc1S(=O)(=O)N1CCCCC1 (stereo not drawn)
5. CCCCCn1c(Sc2ccc(C#N)c([N+](=O)[O-])c2)nnc1-c1cccs1
6. Cc1ccc(-n2[nH]c(C)c(N=Nc3cccc(-c4cccc(NC(=O)OC(C)(C)C)c4)c3O)c2=O)cc1C
7. CCOc1ccc(N2C(N)=NC(N)=NC2(C)C)cc1
8. O=C(NCCCCCN1CCC(c2c[nH]c3ccccc23)CC1)Nc1ccc(Br)cc1

Result:
[90, 79, 70, 92, 38, 21, -2, -4]

Respectfully, I request growth inhibition for each entry included below.
1. CCOc1c(N2CCN(CCCCNC(=O)c3ccc(NC(=O)c4ccc(Cl)cc4)cc3)CC2)ccc2ccccc12
2. CC(Oc1cccc(Cl)c1)C(=O)N1CCc2ccccc21 (stereo not drawn)
3. CCc1ccc(CN2CCC(CNC(=O)c3cc(-c4ccccc4Cl)cs3)C2)cc1 (stereo not drawn)
4. CCN(CC)CCCN1CCN(C(=O)c2cccc(-c3noc(C(F)(F)F)n3)c2)CC1

Result:
45
77
0
74
